Just for reference, paper PMC9666628 is where these values come from.

Tested System: T1, wild-type Cbx3 chromodomain (tags removed) (human, UniProt Q13185 29-86)
T1 construct: chromodomain of human Cbx3; also called Cbx3.wt; source: E. coli BL21(DE3), purified (Ni-NTA; tags removed with TEV protease)
T1 sequence (Q13185 29-86, looked up): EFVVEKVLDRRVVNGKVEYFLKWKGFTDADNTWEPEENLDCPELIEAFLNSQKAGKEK
Experiment Notes: fluorescence polarisation; 0.5 nM FITC-labelled peptide; chromodomains 200-0.2 µM (wild type) or 50 µM-50 nM (Cbx7.V1 and all Cbx.VDs); 30 min at 25 °C; 25 mM HEPES pH 7.5, 150 mM NaCl, 1 mM DTT, 0.01% TritonX-100; one-site total binding model
Run Parameters: both partners purified
Experimental Readout: pKd
Answers are plain numbers, as −log10 of the molar value.

If you can, please state the reported pKd value of ARTKQTARKSTGGKAPR (trimethyl-lysine at K9; fluorescein isothiocyanate (FITC) at the N-terminus) [H3K9me3 peptide, N-terminal FITC] .
5.70
